Target: TRPC3/TRPC6 (Homo sapiens, UniProt Q13507+Q9Y210)
Sequence (Q9Y210 whole entry): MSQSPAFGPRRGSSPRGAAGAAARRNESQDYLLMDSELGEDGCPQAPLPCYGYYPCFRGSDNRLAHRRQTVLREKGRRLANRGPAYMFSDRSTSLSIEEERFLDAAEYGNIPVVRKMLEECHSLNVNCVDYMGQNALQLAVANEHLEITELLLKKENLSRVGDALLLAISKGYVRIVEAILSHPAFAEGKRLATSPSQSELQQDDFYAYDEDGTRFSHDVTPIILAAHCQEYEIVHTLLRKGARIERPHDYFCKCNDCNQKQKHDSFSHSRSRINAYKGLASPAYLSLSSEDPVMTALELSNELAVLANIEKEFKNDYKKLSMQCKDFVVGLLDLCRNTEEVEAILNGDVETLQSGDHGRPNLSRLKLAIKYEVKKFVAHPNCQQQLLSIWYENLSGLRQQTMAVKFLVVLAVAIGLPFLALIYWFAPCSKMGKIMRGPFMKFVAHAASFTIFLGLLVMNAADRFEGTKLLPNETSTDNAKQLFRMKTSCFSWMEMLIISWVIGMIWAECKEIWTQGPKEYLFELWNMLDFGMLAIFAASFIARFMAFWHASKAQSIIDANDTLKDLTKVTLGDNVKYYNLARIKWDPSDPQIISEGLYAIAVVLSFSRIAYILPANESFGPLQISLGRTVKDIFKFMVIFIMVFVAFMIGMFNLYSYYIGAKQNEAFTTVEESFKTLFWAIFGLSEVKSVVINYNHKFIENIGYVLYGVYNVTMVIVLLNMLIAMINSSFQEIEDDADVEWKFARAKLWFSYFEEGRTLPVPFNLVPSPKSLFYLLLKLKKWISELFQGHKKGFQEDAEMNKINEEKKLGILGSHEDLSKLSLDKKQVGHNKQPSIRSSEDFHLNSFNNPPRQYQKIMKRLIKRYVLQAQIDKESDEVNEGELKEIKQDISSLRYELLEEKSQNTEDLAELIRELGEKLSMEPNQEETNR
Sequence (Q13507 whole entry): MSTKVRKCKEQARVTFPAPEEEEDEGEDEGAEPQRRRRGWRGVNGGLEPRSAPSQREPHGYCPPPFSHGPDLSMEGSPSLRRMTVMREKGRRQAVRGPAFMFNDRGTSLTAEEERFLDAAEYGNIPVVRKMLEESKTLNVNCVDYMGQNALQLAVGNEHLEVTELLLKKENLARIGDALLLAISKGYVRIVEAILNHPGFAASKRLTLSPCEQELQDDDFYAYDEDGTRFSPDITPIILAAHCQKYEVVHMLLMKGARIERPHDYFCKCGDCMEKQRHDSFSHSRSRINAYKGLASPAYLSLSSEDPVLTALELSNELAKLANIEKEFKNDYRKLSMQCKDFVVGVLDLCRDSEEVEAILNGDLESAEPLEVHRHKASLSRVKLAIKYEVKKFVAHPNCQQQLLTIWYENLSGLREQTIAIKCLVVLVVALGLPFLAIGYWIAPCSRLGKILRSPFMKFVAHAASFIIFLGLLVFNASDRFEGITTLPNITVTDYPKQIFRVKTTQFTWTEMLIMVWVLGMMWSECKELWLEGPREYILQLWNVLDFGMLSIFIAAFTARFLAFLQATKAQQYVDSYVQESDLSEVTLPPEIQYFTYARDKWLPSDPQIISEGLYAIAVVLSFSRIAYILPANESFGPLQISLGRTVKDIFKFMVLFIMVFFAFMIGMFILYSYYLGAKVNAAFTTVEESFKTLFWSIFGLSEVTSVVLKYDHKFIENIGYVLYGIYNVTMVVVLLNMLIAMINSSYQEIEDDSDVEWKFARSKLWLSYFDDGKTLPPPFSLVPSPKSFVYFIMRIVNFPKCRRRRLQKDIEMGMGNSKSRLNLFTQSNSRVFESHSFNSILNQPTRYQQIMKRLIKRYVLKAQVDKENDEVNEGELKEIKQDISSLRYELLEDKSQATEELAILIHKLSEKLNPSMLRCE
Experiment: Antagonist activity at TRPC3/TRPC6 (unknown origin)
pIC50: −log10 of the molar value.
Metric: pIC50

# input Using known records, supply pIC50 for N#Cc1ccc(S(=O)(=O)N2C[C@H](S(=O)(=O)c3ccc(Cl)cc3)[C@](O)(CO)C2)c(Cl)c1
# output < 4.52

====

Assay: Clearance in Sprague-Dawley rat at 1 mg/kg, iv administered as 30 mins infusion by LC/MS/MS analysis
Assay type: ADME, organism-based
Settings: in vivo
Metric: clearance (mL/min/kg)
Field format: number, assumed mL/min/kg, no unit text.

# input Using known records, supply clearance for N#Cc1ccc(S(=O)(=O)N2C[C@H](S(=O)(=O)c3ccc(Cl)cn3)[C@](O)(CN)C2)c(Cl)c1
# output 12

# input Using known records, supply clearance for N#Cc1ccc(S(=O)(=O)N2C[C@H](S(=N)(=O)c3ccc(Cl)cc3)[C@](O)(CO)C2)c(Cl)c1 (some centres not stated)
# output 52

# input Using known records, supply clearance for N#Cc1ccc(S(=O)(=O)[C@H]2CN(S(=O)(=O)c3ccc(Cl)cc3Cl)C[C@@]2(O)CO)cc1
# output 25

# input Using known records, supply clearance for N#Cc1ccc(O[C@H]2CN(S(=O)(=O)c3ccc(Cl)cc3Cl)C[C@@]2(O)CO)cc1
# output 74

# input Using known records, supply clearance for N#Cc1ccc(S(=O)(=O)[C@H]2CN(S(=O)(=O)c3ccc(Cl)cc3Cl)C[C@@H]2O)cc1
# output 9

# input Using known records, supply clearance for N#Cc1ccc(S(=N)(=O)N2C[C@H](S(=O)(=O)c3ccc(Cl)cc3)[C@](O)(CO)C2)c(Cl)c1 (some centres not stated)
# output 48

# input Using known records, supply clearance for N#Cc1ccc(S(=O)(=O)[C@H]2CN(S(=O)(=O)c3ccc(Cl)cc3C#N)C[C@@]2(O)CO)cc1
# output 82

====

Biological target: Transient receptor potential cation channel subfamily V member 4 (Homo sapiens)
Sequence (Q9HBA0 whole entry): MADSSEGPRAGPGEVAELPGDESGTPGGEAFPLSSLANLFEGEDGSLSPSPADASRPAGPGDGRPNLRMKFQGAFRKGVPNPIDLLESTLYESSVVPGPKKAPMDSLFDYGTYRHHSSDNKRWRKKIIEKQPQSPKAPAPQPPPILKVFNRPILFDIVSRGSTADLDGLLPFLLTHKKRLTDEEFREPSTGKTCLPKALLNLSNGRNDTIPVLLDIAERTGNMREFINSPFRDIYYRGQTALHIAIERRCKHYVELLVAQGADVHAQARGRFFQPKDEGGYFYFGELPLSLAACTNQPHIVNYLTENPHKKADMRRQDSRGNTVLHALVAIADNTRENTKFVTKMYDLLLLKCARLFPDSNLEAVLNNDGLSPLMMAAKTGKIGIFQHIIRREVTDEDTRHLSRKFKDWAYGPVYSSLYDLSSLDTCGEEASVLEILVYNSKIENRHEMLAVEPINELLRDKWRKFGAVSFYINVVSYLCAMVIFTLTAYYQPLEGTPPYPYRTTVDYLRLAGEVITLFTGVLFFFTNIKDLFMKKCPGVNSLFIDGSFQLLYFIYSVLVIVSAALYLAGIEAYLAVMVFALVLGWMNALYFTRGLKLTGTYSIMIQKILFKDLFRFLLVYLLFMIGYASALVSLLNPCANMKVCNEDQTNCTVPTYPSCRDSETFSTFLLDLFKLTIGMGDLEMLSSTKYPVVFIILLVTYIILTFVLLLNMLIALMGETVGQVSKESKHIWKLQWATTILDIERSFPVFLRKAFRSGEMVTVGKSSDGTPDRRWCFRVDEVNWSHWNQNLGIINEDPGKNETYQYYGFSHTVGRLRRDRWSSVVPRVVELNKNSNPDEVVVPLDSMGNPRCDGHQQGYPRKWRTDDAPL
Assay: Antagonist activity at human TRPV4 expressed in HEK cells assessed as inhibition of GSK634775-induced […] pre-incubated for 10 mins followed by agonist addition by Fluo-4-AM dye-based FLIPR assay
Type: cell-based
Metric: IC50 (nM)
Field format: number, assumed nM, no unit text.

# input Look up Transient receptor potential cation channel subfamily V member 4 (Homo sapiens) data: IC50 of N#Cc1ccc(S(=O)(=O)[C@H]2CN(S(=O)(=O)c3ccc(Cl)cc3Cl)C[C@@H]2O)cc1 , then report it.
# output 25

# input Look up Transient receptor potential cation channel subfamily V member 4 (Homo sapiens) data: IC50 of N#Cc1ccc(S(=O)(=O)[C@H]2CN(S(=O)(=O)c3ccc(Cl)cc3Cl)C[C@]2(O)CO)cc1 , then report it.
# output 50

# input Look up Transient receptor potential cation channel subfamily V member 4 (Homo sapiens) data: IC50 of N#Cc1ccc(S(=O)(=O)[C@H]2CN(S(=O)(=O)c3ccc(Cl)cc3Cl)C[C@@]2(O)CO)cc1 , then report it.
# output 7.9

# input Look up Transient receptor potential cation channel subfamily V member 4 (Homo sapiens) data: IC50 of N#Cc1ccc(O[C@H]2CN(S(=O)(=O)c3ccc(Cl)cc3Cl)C[C@@H]2O)cc1 , then report it.
# output 32

# input Look up Transient receptor potential cation channel subfamily V member 4 (Homo sapiens) data: IC50 of N#Cc1ccc(S(=O)(=O)[C@@H]2CN(S(=O)(=O)c3ccc(Cl)cc3Cl)C[C@@]2(O)CO)cc1 , then report it.
# output 1590

# input Look up Transient receptor potential cation channel subfamily V member 4 (Homo sapiens) data: IC50 of N#Cc1ccc(S(=O)(=O)[C@@H]2CN(S(=O)(=O)c3ccc(Cl)cc3Cl)C[C@]2(O)CO)cc1 , then report it.
# output 159

====

Test: AUC (0 to t) in dog at 30 mg/kg, po
Format: ADME, organism-based, Canis lupus familiaris
Details: in vivo
Metric: AUC(0-t)

# input Using known records, supply AUC(0-t) for N#Cc1ccc(S(=O)(=O)N2C[C@H](S(=O)(=O)c3ccc(Cl)cc3)[C@](O)(CO)C2)c(Cl)c1
# output 90000 ng·h/mL

====

Assay: Oral bioavailability in Sprague-Dawley rat at 2 mg/kg by LC/MS/MS analysis
Type: ADME, organism-based
Conditions: in vivo
Metric: bioavailability (%)
Field format: number, assumed %, no unit text.

# input Using known records, supply bioavailability for N#Cc1ccc(S(=O)(=O)[C@H]2CN(S(=O)(=O)c3ccc(Cl)cc3Cl)C[C@@]2(O)CO)cc1F
# output 51

# input Using known records, supply bioavailability for N#Cc1ccc(O[C@H]2CN(S(=O)(=O)c3ccc(Cl)cc3Cl)C[C@@]2(O)CO)cc1
# output 46

# input Using known records, supply bioavailability for N#Cc1ccc(S(=O)(=O)N2C[C@H](S(=O)(=O)c3ccc(Cl)cc3)[C@](O)(CN)C2)c(Cl)c1
# output 22

# input Using known records, supply bioavailability for N#Cc1ccc(S(=O)(=O)[C@H]2CN(S(=O)(=O)c3ccc(Cl)cc3C#N)C[C@@]2(O)CO)cc1
# output 25

# input Using known records, supply bioavailability for N#Cc1ccc(S(=O)(=O)N2C[C@H](S(=O)(=O)c3ccc(Cl)cc3)[C@](O)(CO)C2)c(Cl)c1
# output 100

# input Using known records, supply bioavailability for N#Cc1ccc(S(=O)(=O)N2C[C@H](S(=O)(=O)c3ccc(Cl)cc3)[C@](O)(CO)C2)cn1
# output 62

# input Using known records, supply bioavailability for N#Cc1ccc(S(=O)(=O)[C@H]2CN(S(=O)(=O)c3ccc(Cl)cc3Cl)C[C@@H]2O)cc1
# output 100

====

Target: Cytochrome P450 3A4 (Homo sapiens, UniProt P08684)
Sequence (P08684 whole entry): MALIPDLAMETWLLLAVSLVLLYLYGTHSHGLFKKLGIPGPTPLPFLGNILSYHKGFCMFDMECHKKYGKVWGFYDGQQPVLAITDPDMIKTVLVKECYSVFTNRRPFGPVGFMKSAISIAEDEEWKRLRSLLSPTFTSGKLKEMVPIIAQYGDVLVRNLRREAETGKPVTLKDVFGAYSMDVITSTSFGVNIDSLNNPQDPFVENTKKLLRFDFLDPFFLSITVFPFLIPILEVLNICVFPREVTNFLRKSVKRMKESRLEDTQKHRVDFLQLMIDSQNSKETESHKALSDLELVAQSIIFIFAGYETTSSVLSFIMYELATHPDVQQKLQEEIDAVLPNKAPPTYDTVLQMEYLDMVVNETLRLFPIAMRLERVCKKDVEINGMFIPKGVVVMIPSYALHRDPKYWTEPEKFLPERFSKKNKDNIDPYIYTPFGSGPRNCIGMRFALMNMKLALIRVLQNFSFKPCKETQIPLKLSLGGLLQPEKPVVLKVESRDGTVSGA
Metric: pIC50
To interpret pIC50, take it as minus log10 of a concentration measured in moles per litre.

# input Using known records, supply pIC50 for N#Cc1ccc(S(=O)(=O)N2C[C@H](S(=O)(=O)c3ccc(Cl)cn3)[C@@](O)(CN)C2)c(Cl)c1
# output 5.40

====

Test: Permeability of the compound by PAMPA
Format: ADME
Settings: read-out: permeability
Metric: Papp (×10⁻⁶ cm/s)
Field format: number, assumed ×10⁻⁶ cm/s, no unit text.

# input Using known records, supply Papp for N#Cc1ccc(S(=O)(=O)[C@H]2CN(S(=O)(=O)c3ccc(Cl)cc3Cl)C[C@@]2(O)CO)cc1
# output 45

# input Using known records, supply Papp for N#Cc1ccc(S(=O)(=O)N2C[C@H](S(=O)(=O)c3ccc(Cl)cc3)[C@](O)(CO)C2)c(Cl)c1
# output 35

# input Using known records, supply Papp for N#Cc1ccc(S(=O)(=O)[C@H]2CN(S(=O)(=O)c3ccc(Cl)cc3Cl)C[C@@H]2O)cc1
# output 78

# input Using known records, supply Papp for N#Cc1ccc(O[C@H]2CN(S(=O)(=O)c3ccc(Cl)cc3Cl)C[C@@]2(O)CO)cc1
# output 37

# input Using known records, supply Papp for N#Cc1ccc(S(=O)(=O)[C@H]2CN(S(=O)(=O)c3ccc(C#N)cc3Cl)C[C@@]2(O)CO)cc1
# output 35

====

Assay: Oral bioavailability in Sprague-Dawley rat at 2 mg/kg by LC/MS/MS analysis
Type: ADME, organism-based
Settings: in vivo
Metric: bioavailability (%)
Field format: number, assumed %, no unit text.

# input Using known records, supply bioavailability for N#Cc1ccc(S(=O)(=O)N2C[C@H](S(=O)(=O)c3ccc(Cl)cc3)[C@](O)(CO)C2)c(C(F)(F)F)n1
# output 8

# input Using known records, supply bioavailability for N#Cc1ccc(S(=O)(=O)[C@H]2CN(S(=O)(=O)c3ccc(C#N)cc3Cl)C[C@@]2(O)CO)cc1
# output 15

# input Using known records, supply bioavailability for N#Cc1ccc(S(=O)(=O)N2C[C@H](S(=O)(=O)c3ccc(Cl)cn3)[C@](O)(CN)C2)c(Cl)c1
# output 64

# input Using known records, supply bioavailability for N#Cc1ccc(S(=O)(=O)[C@H]2CN(S(=O)(=O)c3ccc(Cl)cc3Cl)C[C@@]2(O)CO)cc1
# output 100

====

Molecular target: Transient receptor potential cation channel subfamily A member 1 (Homo sapiens, UniProt O75762)
Sequence (O75762 whole entry): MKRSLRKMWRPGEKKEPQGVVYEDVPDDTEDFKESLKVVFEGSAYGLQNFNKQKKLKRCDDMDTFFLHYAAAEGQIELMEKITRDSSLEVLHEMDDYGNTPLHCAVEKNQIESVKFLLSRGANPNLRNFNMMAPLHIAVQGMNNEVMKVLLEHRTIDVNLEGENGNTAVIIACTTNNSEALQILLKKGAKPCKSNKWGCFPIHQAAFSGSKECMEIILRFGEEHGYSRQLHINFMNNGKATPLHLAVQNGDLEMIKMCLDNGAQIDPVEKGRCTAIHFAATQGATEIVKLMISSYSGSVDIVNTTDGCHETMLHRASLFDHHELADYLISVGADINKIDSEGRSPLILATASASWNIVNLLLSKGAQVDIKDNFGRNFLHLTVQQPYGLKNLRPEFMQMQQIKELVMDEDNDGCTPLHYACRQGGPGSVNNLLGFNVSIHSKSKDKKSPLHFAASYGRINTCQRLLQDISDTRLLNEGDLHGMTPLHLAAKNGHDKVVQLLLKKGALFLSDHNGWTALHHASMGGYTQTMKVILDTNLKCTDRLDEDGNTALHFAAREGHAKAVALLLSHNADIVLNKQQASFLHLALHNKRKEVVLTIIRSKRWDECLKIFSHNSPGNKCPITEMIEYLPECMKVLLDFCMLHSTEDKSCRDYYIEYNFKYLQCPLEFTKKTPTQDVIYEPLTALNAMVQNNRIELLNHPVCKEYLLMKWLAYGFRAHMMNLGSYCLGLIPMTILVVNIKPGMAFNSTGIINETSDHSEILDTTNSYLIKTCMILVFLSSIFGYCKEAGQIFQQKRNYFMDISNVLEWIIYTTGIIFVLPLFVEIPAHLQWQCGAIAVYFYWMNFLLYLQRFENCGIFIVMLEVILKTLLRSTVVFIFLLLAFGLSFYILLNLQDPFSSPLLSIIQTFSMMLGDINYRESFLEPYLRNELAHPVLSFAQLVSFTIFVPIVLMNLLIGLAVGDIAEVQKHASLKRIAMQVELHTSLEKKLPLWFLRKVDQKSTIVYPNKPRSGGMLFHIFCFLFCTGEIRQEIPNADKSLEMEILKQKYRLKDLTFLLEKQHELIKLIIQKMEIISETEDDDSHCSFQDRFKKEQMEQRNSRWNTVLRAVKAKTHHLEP
Metric: IC50

# input Using known records, supply IC50 for N#Cc1ccc(S(=O)(=O)N2C[C@H](S(=O)(=O)c3ccc(Cl)cc3)[C@](O)(CO)C2)c(Cl)c1
# output > 30 µM

====

Assay: Plasma concentration in Sprague-Dawley rat heart failure-induced pulmonary edema model at 0.78 mg/kg, iv bolus loading dose followed by 0.6 ug/kg/min, iv continuous infusion dose for 60 mins
Type: ADME, organism-based
Metric: concentration at 1 h (µM)
Field format: number, assumed µM, no unit text.

# input Using known records, supply concentration at 1 h for N#Cc1ccc(S(=O)(=O)N2C[C@H](S(=O)(=O)c3ccc(Cl)cn3)[C@@](O)(CN)C2)c(Cl)c1
# output 4.5
